- ASSAY PROTOCOL: ACEA_AR_antagonist_AUC_viability: ACEA Biosciences xCELLigence Real-Time Cell Analysis on Androgen Receptor Antagonism for Viability (AID 2283776);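 further: 22Rv1 human prostate cancer cells growing on impedance electrode plates; area under impedance growth curve at 80 h after dosing as viability; hits lower the growth signal relative to DMSO meaning cytotoxicity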
Inconclusive results are not listed. Calls of active or inactive are those of the source. How the source made its calls: active means hit-call score of the fitted dose curve at least 0.9, where 1 is the maximum; inconclusive means response in the unintended direction; inactive means score below 0.9.
MEASURED PARAMETER: AC50

Guide cases for AC50, answers given:
CCCCOCCOCCOCc1cc2c(cc1CCC)OCO2
50 µM (active)
CCCCCCC(C)OC(=O)COc1nc(F)c(Cl)c(N)c1Cl (configuration not stated)
17.8 µM (active)
CCN(CC)C(=O)c1cccc(C)c1
inactive
OB(O)O
inactive
CC(C)(C)[C@@H](O)[C@@H](Cc1ccc(Cl)cc1)n1cncn1
24.1 µM (active)
COC(=O)c1ccccc1C(=O)O
inactive
N[C@@H](Cc1cc(I)c(Oc2ccc(O)c(I)c2)c(I)c1)C(=O)O
9.7 µM (active)
CC(=O)[C@H]1CC[C@H]2[C@@H]3CCC4=CC(=O)CC[C@]4(C)[C@H]3CC[C@]12C
inactive

Name the recorded AC50 for `CCN(Cc1c(F)cccc1Cl)c1c([N+](=O)[O-])cc(C(F)(F)F)cc1[N+](=O)[O-]` .
25 µM (active)

Recorded AC50 of `C#CCOC(=O)[C@@H](C)Oc1ccc(Oc2ncc(Cl)cc2F)cc1` , please.
23.1 µM (active)

# query: AC50 of entry CCOC(=O)C(C)Oc1ccc(Oc2nc3ccc(Cl)cc3o2)cc1 (configuration not stated)
36.4 µM (active)

Looking for the measured AC50 of CC1(C)C(C=C(Cl)Cl)C1C(=O)OCc1cccc(Oc2ccccc2)c1 (configuration not stated) , can you help?
34.2 µM (active)

Which AC50 is reported for this compound? `O=C(O)C1(C(=O)Nc2ccc(Cl)cc2Cl)CC1`
50 µM (active)

Param item = `CCCCOC(=O)[C@@H](C)Oc1ccc(Oc2ccc(C(F)(F)F)cn2)cc1` ; retrieve measured AC50.
inactive

Fill blank: measured AC50 of the compound `C#C[C@]1(O)CC[C@H]2[C@@H]3CCC4=CC(=O)CC[C@@H]4[C@H]3CC[C@@]21CC` is ____.
0.357 µM (active)

Which AC50 is reported for this compound? CCC(C)OC(=O)N1CCCCC1CCO (configuration not stated)
inactive

Looking for the measured AC50 of `c1ccc2[nH]c(-c3cscn3)nc2c1` , can you help?
34.5 µM (active)

Fill blank: measured AC50 of the compound CCCCC(CC)CN1C(=O)C2C3C=CC(C3)C2C1=O (configuration not stated) is ____.
56.8 µM (active)

Fill in: AC50 of `CSC(=O)c1cccc2nnsc12` is ___
inactive

State the recorded AC50 for this entry: `COc1c(Cl)ccc(Cl)c1C(=O)O`
inactive

Entry `COCCO` : reported AC50 = ?
inactive

What value of AC50 has been reported for the following compound? `Oc1ccc(C(c2ccc(O)cc2)C(Cl)(Cl)Cl)cc1`
17 µM (active)

What value of AC50 has been reported for the following compound? `CCCN(CCC)c1c([N+](=O)[O-])cc(C(F)(F)F)c(N)c1[N+](=O)[O-]`
35 µM (active)

AC50 for `N#CSCSc1nc2ccccc2s1` ?
15.7 µM (active)

----------
- Read-out: sulfotransferase (SULT2A), SULT2A1 (gene 6822)
- ASSAY PROTOCOL: CLD_SULT2A_24hr: CellzDirect (CLD) Gene Expression Assay for sulfotransferase (SULT2A) at 24 hours (AID 2283694)
Results filed as inconclusive are left out. Active and inactive are the calls of the source. How the source made its calls: active means hit-call score of the fitted dose curve at least 0.9, where 1 is the maximum; inconclusive means response in the unintended direction; inactive means score below 0.9.
MEASURED PARAMETER: outcome

Worked examples follow.
CCOC(=O)C(C)Oc1ccc(Oc2nc3ccc(Cl)cc3o2)cc1 (configuration not stated)
inactive
COc1c(Cl)ccc(Cl)c1C(=O)O
inactive
OB(O)O
inactive
CCCCOC(=O)[C@@H](C)Oc1ccc(Oc2ccc(C(F)(F)F)cn2)cc1
inactive
CCCCC(CC)CN1C(=O)C2C3C=CC(C3)C2C1=O (configuration not stated)
inactive

Sample `COC(=O)CSc1cc(N=c2sc(=O)n3n2CCCC3)c(F)cc1Cl` — what was its outcome?
inactive

What outcome value was documented for this compound, `COCCO` ?
inactive
